# subject-of-test: Retinoic acid receptor RXR-alpha (Homo sapiens) (UniProt P19793)
# Sequence (P19793 whole entry, looked up): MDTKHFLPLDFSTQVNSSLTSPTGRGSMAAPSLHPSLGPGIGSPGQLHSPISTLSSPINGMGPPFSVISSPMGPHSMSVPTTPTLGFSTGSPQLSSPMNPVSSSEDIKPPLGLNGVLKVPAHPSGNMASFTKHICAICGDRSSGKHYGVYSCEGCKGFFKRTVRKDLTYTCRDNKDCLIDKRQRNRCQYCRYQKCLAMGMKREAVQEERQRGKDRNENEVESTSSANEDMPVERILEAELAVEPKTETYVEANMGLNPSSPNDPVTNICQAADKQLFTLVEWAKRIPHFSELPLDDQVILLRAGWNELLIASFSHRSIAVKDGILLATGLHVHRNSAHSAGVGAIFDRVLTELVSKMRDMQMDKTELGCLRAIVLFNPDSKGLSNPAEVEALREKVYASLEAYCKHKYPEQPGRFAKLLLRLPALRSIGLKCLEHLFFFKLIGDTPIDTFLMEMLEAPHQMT
# protocol-text: qHTS assay for small molecule antagonists of retinoid X receptor alpha signaling (AID 588546);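 note: cells stimulated with 9-cis-retinoic acid as agonist; % is set by controls: 0 for no effect and ±100 for the full control effect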
# measurement-parameters: HEK293T RXRa-UAS-bla, beta-lactamase ratio, antagonist mode
Inconclusive results are not listed.
Provide the recorded max response for the entries that follow.
Dear colleague, please return just the value in %, with no unit written.

(Q) What value of max response has been reported for the following compound? CCCSP(=O)(OCC)SCCC
(A) -0.503

(Q) What value of max response has been reported for the following compound? [O]=[Cd]
(A) -2.87

(Q) What value of max response has been reported for the following compound? Clc1ccccc1Cl
(A) 14.3

(Q) What value of max response has been reported for the following compound? O=Cc1ccco1
(A) -1.1

---

# subject-of-test: N-terminal Xaa-Pro-Lys N-methyltransferase 1 (Homo sapiens)
# protocol-text: qHTS Assay for Inhibitors of N-terminal methyltransferase 1 (NTMT1): LOPAC validation of the NTMT1 SAHH-coupled ThioGlo3 Assay (AID 1347143);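 note: SAH from peptide methylation measured as thiol fluorescence via SAHH coupling and ThioGlo3; nearly all actives have a fitted effect of over 70% in size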
# measurement-parameters: recombinant NTMT1, SAHH-coupled ThioGlo3 fluorescence; series mostly up to 114 µM
Results filed as inconclusive are left out. Active and inactive are the calls of the source. The call rests on the fitted dose curve; in most records, active means well fitted inhibition curve with a large enough effect; inconclusive means small, poorly fitted or top-dose-only effect; inactive means no such curve, though single readings can be large or run the other way.
One label from this list, please: active, inactive

(Q) Per the records of this test, what outcome belongs to c1ccc2cc(CC3=NCCN3)ccc2c1 ?
(A) inactive

(Q) Per the records of this test, what outcome belongs to CCNC(=O)[C@H]1O[C@@H](n2cnc3c(N)ncnc32)[C@H](O)C1O (some centres undefined) ?
(A) inactive

(Q) Per the records of this test, what outcome belongs to NC(N)=Nc1ccc2[nH]c3c(c2c1)C[C@@]1(O)[C@H]2Cc4ccc(O)c5c4[C@@]1(CCN2CC1CC1)[C@H]3O5 ?
(A) active

(Q) Per the records of this test, what outcome belongs to CC1OC1P(=O)(O)O (centres undefined) ?
(A) inactive

(Q) Per the records of this test, what outcome belongs to NC(CCCCCP(=O)(O)O)C(=O)O (centres undefined) ?
(A) inactive

(Q) Per the records of this test, what outcome belongs to NCCc1ccc(S(=O)(=O)F)cc1 ?
(A) inactive

(Q) Per the records of this test, what outcome belongs to CCCN(CCC)C1CCc2cccc(O)c2C1 (centres undefined) ?
(A) inactive

(Q) Per the records of this test, what outcome belongs to C[C@H](Cc1ccc2c(c1)OC(C(=O)O)(C(=O)O)O2)NC[C@H](O)c1cccc(Cl)c1 ?
(A) inactive

(Q) Per the records of this test, what outcome belongs to COc1ccc2c(c1O)-c1cccc3c1[C@@H](C2)N(C)CC3 ?
(A) active

(Q) Per the records of this test, what outcome belongs to O=[N+]([O-])c1cc(O)c(O)c([N+](=O)[O-])c1 ?
(A) active

(Q) Per the records of this test, what outcome belongs to [Cl-].[Cl][Pt].[NH2-].[NH2-].c1ccncc1 ?
(A) active

(Q) Per the records of this test, what outcome belongs to CP(=O)(O)C1=CCNCC1 ?
(A) inactive

(Q) Per the records of this test, what outcome belongs to NC(=O)c1cc(N2CC2)c([N+](=O)[O-])cc1[N+](=O)[O-] ?
(A) inactive

(Q) Per the records of this test, what outcome belongs to CN(N=O)c1cc(O)ccc1O ?
(A) active

(Q) Per the records of this test, what outcome belongs to NCC(O)c1cc(O)c(O)cc1F (centres undefined) ?
(A) active

(Q) Per the records of this test, what outcome belongs to C[N+]1(C)CCOC(O)(c2ccc(-c3ccc(C4(O)C[N+](C)(C)CCO4)cc3)cc2)C1 (centres undefined) ?
(A) inactive

(Q) Per the records of this test, what outcome belongs to NC(Cc1cc(O)c(O)cc1O)C(=O)O (centres undefined) ?
(A) active

(Q) Per the records of this test, what outcome belongs to c1ccc2c(N3CCNCC3)cccc2c1 ?
(A) active

(Q) Per the records of this test, what outcome belongs to O=C1C=CC(=O)C=C1 ?
(A) inactive

(Q) Per the records of this test, what outcome belongs to NC(C(=O)O)c1cc(=O)[nH]o1 (centres undefined) ?
(A) inactive

(Q) Per the records of this test, what outcome belongs to C[N+]1(C)CCC(OC(=O)C(c2ccccc2)c2ccccc2)CC1 ?
(A) active

(Q) Per the records of this test, what outcome belongs to CCCN1CCC[C@@H](c2cccc(O)c2)C1 ?
(A) inactive

(Q) Per the records of this test, what outcome belongs to C[C@@H]1O[C@@H](O[C@H]2C[C@@H](O)[C@]3(CO)[C@@H]4C(CC[C@]3(O)C2)[C@@]2(O)CC[C@H]([C@@H]3COC(=O)C3)[C@@]2(C)C[C@H]4O)[C@H](O)[C@H](O)[C@H]1O (some centres undefined) ?
(A) inactive

(Q) Per the records of this test, what outcome belongs to C[N+](C)(C)CC#CCN1CCCC1=O ?
(A) active

All figures here come from PubChem BioAssay (NCATS).
